# Conditions Used: in methanol, 303.15 K
Assay Metric: solubility (mole fraction)
Lab note: write the figure by itself, no unit.

Please report the recorded solubility (mole fraction) for "CCCc1ncc(C[n+]2ccccc2C)c(N)n1.Cl.[Cl-]" .
0.001

---

# Conditions Used: in cyclohexanone, 303.15 K
Assay Metric: solubility (mole fraction)
Give the figure by itself; no unit, no explanation.

Which solubility (mole fraction) value is on record for "CCCc1ncc(C[n+]2ccccc2C)c(N)n1.Cl.[Cl-]" ?
0.000327

---

# Conditions Used: in acetone, 298.15 K
Assay Metric: solubility (mole fraction)
The reply should be a number, written without any unit.

What does the record list as solubility (mole fraction) for "CCCc1ncc(C[n+]2ccccc2C)c(N)n1.Cl.[Cl-]" ?
0.000401

---

# Conditions Used: in cyclohexanone, 283.15 K
Assay Metric: solubility (mole fraction)
Reply: number alone, nothing else.

Report solubility (mole fraction) for "CCCc1ncc(C[n+]2ccccc2C)c(N)n1.Cl.[Cl-]" please.
0.000181

---

# Conditions Used: in n-octanol, 273.15 K
Assay Metric: solubility (mole fraction)

Give its solubility (mole fraction) value. Item: "CCCc1ncc(C[n+]2ccccc2C)c(N)n1.Cl.[Cl-]"
2e-06

---

# Conditions Used: in isopropanol, 293.15 K
Assay Metric: solubility (mole fraction)

So what does the record say about solubility (mole fraction) for "CCCc1ncc(C[n+]2ccccc2C)c(N)n1.Cl.[Cl-]" ?
3.83e-05

---

# Conditions Used: in n-butanol, 313.15 K
Assay Metric: solubility (mole fraction)
Lab note: record just the number, no unit beside it.

Entry under review: "CCCc1ncc(C[n+]2ccccc2C)c(N)n1.Cl.[Cl-]" . Reported solubility (mole fraction)?
0.000109

---

# Conditions Used: in acetonitrile, 303.15 K
Assay Metric: solubility (mole fraction)

Quick check: solubility (mole fraction) of "CCCc1ncc(C[n+]2ccccc2C)c(N)n1.Cl.[Cl-]" ?
2.35e-05

---

# Conditions Used: in ethyl acetate, 273.15 K
Assay Metric: solubility (mole fraction)
// no unit string in output, number only

Give the measured solubility (mole fraction) of "CCCc1ncc(C[n+]2ccccc2C)c(N)n1.Cl.[Cl-]" .
2.48e-05

---

# Conditions Used: in n-butanol, 283.15 K
Assay Metric: solubility (mole fraction)
Output: the number by itself.

Consider the compound "CCCc1ncc(C[n+]2ccccc2C)c(N)n1.Cl.[Cl-]" and give its measured solubility (mole fraction).
3.1e-05

---

# Conditions Used: in n-octanol, 283.15 K
Assay Metric: solubility (mole fraction)
Response field accepts a number only; no unit should be typed.

Which measured solubility (mole fraction) value corresponds to "CCCc1ncc(C[n+]2ccccc2C)c(N)n1.Cl.[Cl-]" ?
4.9e-06

---

# Conditions Used: in n-octanol, 308.15 K
Assay Metric: solubility (mole fraction)
Give your answer as a number; write no unit.

Sample "CCCc1ncc(C[n+]2ccccc2C)c(N)n1.Cl.[Cl-]" — what was its solubility (mole fraction)?
2.41e-05

---

# Conditions Used: in n-propanol, 298.15 K
Assay Metric: solubility (mole fraction)

Form field: reported solubility (mole fraction) of "CCCc1ncc(C[n+]2ccccc2C)c(N)n1.Cl.[Cl-]"
9.09e-05

---

# Conditions Used: in acetone, 303.15 K
Assay Metric: solubility (mole fraction)
Could you respond with only the numeric value?

Given the entry "CCCc1ncc(C[n+]2ccccc2C)c(N)n1.Cl.[Cl-]" , report its measured solubility (mole fraction).
0.000444

---

# Conditions Used: in acetone, 283.15 K
Assay Metric: solubility (mole fraction)

Which solubility (mole fraction) value is on record for "CCCc1ncc(C[n+]2ccccc2C)c(N)n1.Cl.[Cl-]" ?
0.000291

---

# Conditions Used: in n-propanol, 303.15 K
Assay Metric: solubility (mole fraction)

I'd like to know its solubility (mole fraction). The compound in question is "CCCc1ncc(C[n+]2ccccc2C)c(N)n1.Cl.[Cl-]"
0.000106

---

# Conditions Used: in isopropanol, 273.15 K
Assay Metric: solubility (mole fraction)
Enter a number only.

Value lookup for solubility (mole fraction); key = "CCCc1ncc(C[n+]2ccccc2C)c(N)n1.Cl.[Cl-]"
1.12e-05

---

# Conditions Used: in isobutanol, 313.15 K
Assay Metric: solubility (mole fraction)
Please give the numeric answer without any surrounding text.

Any idea what its solubility (mole fraction) is? The compound is "CCCc1ncc(C[n+]2ccccc2C)c(N)n1.Cl.[Cl-]"
5.86e-05

---

# Conditions Used: in n-butanol, 273.15 K
Assay Metric: solubility (mole fraction)
The response must contain the number and no unit.

// lookup solubility (mole fraction) for "CCCc1ncc(C[n+]2ccccc2C)c(N)n1.Cl.[Cl-]"
1.79e-05

---

# Conditions Used: in isopropanol, 283.15 K
Assay Metric: solubility (mole fraction)
Lab note: jot down the number only; don't add units.

Returns the measured solubility (mole fraction) for the input compound. Input: "CCCc1ncc(C[n+]2ccccc2C)c(N)n1.Cl.[Cl-]"
2.25e-05

---

# Conditions Used: in acetonitrile, 293.15 K
Assay Metric: solubility (mole fraction)
The response must contain the number and no unit.

Need solubility (mole fraction), item "CCCc1ncc(C[n+]2ccccc2C)c(N)n1.Cl.[Cl-]"
1.68e-05

---

# Conditions Used: in cyclohexanone, 288.15 K
Assay Metric: solubility (mole fraction)
Give only the figure.

solubility (mole fraction) for "CCCc1ncc(C[n+]2ccccc2C)c(N)n1.Cl.[Cl-]" ?
0.000217

---

# Conditions Used: in ethyl acetate, 293.15 K
Assay Metric: solubility (mole fraction)
Please give only the number in your answer, with no unit.

I am curious: what solubility (mole fraction) value has been reported for "CCCc1ncc(C[n+]2ccccc2C)c(N)n1.Cl.[Cl-]" ?
6.41e-05

---

# Conditions Used: in n-octanol, 278.15 K
Assay Metric: solubility (mole fraction)
Please give the numeric answer without any surrounding text.

Would you kindly share the measured solubility (mole fraction) for "CCCc1ncc(C[n+]2ccccc2C)c(N)n1.Cl.[Cl-]" ?
3.3e-06

---

# Conditions Used: in acetone, 308.15 K
Assay Metric: solubility (mole fraction)

Request the reported solubility (mole fraction) associated with "CCCc1ncc(C[n+]2ccccc2C)c(N)n1.Cl.[Cl-]"
0.000487

---

# Conditions Used: in acetonitrile, 298.15 K
Assay Metric: solubility (mole fraction)
I only need the number, thanks.

Can you share its solubility (mole fraction)? I mean this compound: "CCCc1ncc(C[n+]2ccccc2C)c(N)n1.Cl.[Cl-]"
1.98e-05

---

# Conditions Used: in methanol, 273.15 K
Assay Metric: solubility (mole fraction)
Please respond with just the number, no unit label.

Which measured solubility (mole fraction) value corresponds to "CCCc1ncc(C[n+]2ccccc2C)c(N)n1.Cl.[Cl-]" ?
0.000272

---

# Conditions Used: in ethyl acetate, 308.15 K
Assay Metric: solubility (mole fraction)
Please state the value as a number alone, without comment.

// returns reported solubility (mole fraction) for input "CCCc1ncc(C[n+]2ccccc2C)c(N)n1.Cl.[Cl-]"
0.000104

---

# Conditions Used: in n-butanol, 293.15 K
Assay Metric: solubility (mole fraction)
I'd appreciate a reply containing only the number, no unit.

Find the recorded solubility (mole fraction) belonging to "CCCc1ncc(C[n+]2ccccc2C)c(N)n1.Cl.[Cl-]" and report it.
4.88e-05

---

# Conditions Used: in isopropanol, 303.15 K
Assay Metric: solubility (mole fraction)
Number only, no unit.

What does the record list as solubility (mole fraction) for "CCCc1ncc(C[n+]2ccccc2C)c(N)n1.Cl.[Cl-]" ?
6.13e-05

---

# Conditions Used: in isobutanol, 303.15 K
Assay Metric: solubility (mole fraction)
Please state the value as a number alone, without comment.

Given the molecule "CCCc1ncc(C[n+]2ccccc2C)c(N)n1.Cl.[Cl-]" , what is its reported solubility (mole fraction)?
4.11e-05

---

# Conditions Used: in n-propanol, 278.15 K
Assay Metric: solubility (mole fraction)
Please give the numeric answer without any surrounding text.

Entry "CCCc1ncc(C[n+]2ccccc2C)c(N)n1.Cl.[Cl-]" has what solubility (mole fraction)?
4.12e-05

---

# Conditions Used: in 1,4-dioxane, 313.15 K
Assay Metric: solubility (mole fraction)
Respond numerically, and do not add a unit to the figure.

Look up solubility (mole fraction): "CCCc1ncc(C[n+]2ccccc2C)c(N)n1.Cl.[Cl-]"
0.000132

---

# Conditions Used: in n-octanol, 288.15 K
Assay Metric: solubility (mole fraction)
Would you mind answering with just the numeric figure?

Recorded solubility (mole fraction) for "CCCc1ncc(C[n+]2ccccc2C)c(N)n1.Cl.[Cl-]" , please?
6.7e-06

---

# Conditions Used: in n-propanol, 288.15 K
Assay Metric: solubility (mole fraction)
Enter a number only.

Reported solubility (mole fraction) for "CCCc1ncc(C[n+]2ccccc2C)c(N)n1.Cl.[Cl-]" : what is it?
6.51e-05

---

# Conditions Used: in acetonitrile, 273.15 K
Assay Metric: solubility (mole fraction)
Reply with the value as a number alone.

What does the record list as solubility (mole fraction) for "CCCc1ncc(C[n+]2ccccc2C)c(N)n1.Cl.[Cl-]" ?
7.2e-06
